pIC50: −log10 of the molar value.
Compiled record: pIC50 values for UniProt P05181 across several sources.
Sequence (P05181 whole entry): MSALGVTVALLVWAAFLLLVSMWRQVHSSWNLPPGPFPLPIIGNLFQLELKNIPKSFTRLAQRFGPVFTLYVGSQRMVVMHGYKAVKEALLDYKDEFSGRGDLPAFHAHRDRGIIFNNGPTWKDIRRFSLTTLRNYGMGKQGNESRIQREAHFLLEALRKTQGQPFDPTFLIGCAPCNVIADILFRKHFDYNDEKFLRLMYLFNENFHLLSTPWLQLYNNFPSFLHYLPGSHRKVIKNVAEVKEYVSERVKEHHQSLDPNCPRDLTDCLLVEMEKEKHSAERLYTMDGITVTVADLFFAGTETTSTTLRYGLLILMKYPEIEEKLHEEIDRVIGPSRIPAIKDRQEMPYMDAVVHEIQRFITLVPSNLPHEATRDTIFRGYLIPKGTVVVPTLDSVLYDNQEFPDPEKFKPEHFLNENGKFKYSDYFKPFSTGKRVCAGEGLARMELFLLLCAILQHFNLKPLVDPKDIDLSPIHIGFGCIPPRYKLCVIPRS

| structureSmiles | relationOperator | pIC50 |
| --- | --- | --- |
| O/N=C/c1ccc(-c2cccnc2)s1 | = | 5.38 |
| CCn1cnc(-c2cccnc2)c1 | = | 4.10 |
| NCC#Cc1cnccc1-c1cncnc1 | < | 4.60 |
| Cc1cn(-c2cccnc2)cn1 | = | 4.24 |
| COc1ccc(CN2CCN(c3ccc(NC(=O)c4ccccc4NC(=O)c4cnc5ccccc5c4)cc3)CC2)cc1OC | < | 4.00 |
| NCC#Cc1cnccc1-c1ccco1 | = | 5.72 |
| Cl.Cl.Cl.NCc1ccc(-c2cnccc2-c2cccnc2)o1 | = | 4.51 |
| Cl.Cl.Cl.NCC#Cc1cnccc1-c1ccncc1 | < | 4.60 |
| CC(C)(C)NC(=O)c1ccc(Oc2cc(F)c(CC(=O)O)cc2Cl)c(NS(=O)(=O)c2ccc(C3CC3)cc2Cl)c1 | ≤ | 4.52 |
| Cc1nc(-c2cccc(C#N)c2)n(OCc2ccc(C#N)cc2)c1C(=O)O | < | 5.00 |
